B1: RSPH3 (parent)
chain: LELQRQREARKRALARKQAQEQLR

- Variants of: B1
- measurement.description: protein stability index of a GFP-peptide fusion (GPS, HEK-293T) (PSI 1-6); higher = more stable;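 note: lentivirally expressed fusions sorted by FACS into six bins by GFP to DsRed ratio, PSI derived from sequencing read proportions per bin multiplied by bin number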
- test.context: c terminus: a fixed tail appended
Entries and their protein stability index values follow.

mutation.name	protein stability index
R12H	3.71
A15D	3.94
L3F	3.81
R10D	4.38
E2F	2.56
R24A	3.97
Q18A	3.12
R16V	3.17
E2K	4.11
E2M	2.92
Q18W	2.5
K11Q	4.35
L3W	3.52
R12M	4.18
R10L	3.62
Q6T	3.87
R24F	3.77
Q22G	4.22
Q6H	2.96
R5L	3.25
A15W	3.53
Q18T	4.05
E21S	3.73
L1P	4.45
R10Y	3.17
Q4I	2.95
L23G	4.78
Q18L	3.13
Q18P	4.32
R24N	4.23
E21Q	3.23
R24V	4.43
L1S	3.85
A19D	4.37
R5D	4.27
Q4L	3.22
R16L	4.25
Q22R	3.93
A13H	4.06
A9N	3.45
Q6C	3.17
A15Q	2.39
A19F	3.08
A13W	3.73
E8V	3.39
E8A	3.99
